The measured values listed here are drawn from ChEMBL document CHEMBL3124924.

- Tested on: NCI-H322M
- test: Cytotoxicity against human NCI-H322M cells assessed as growth inhibition at 10 uM after 48 hrs by SRB assay
- Type: functional
- conditions: read-out: GI
For each record, write down the corresponding inhibition of growth at 10 µM.

**Query** Item under review: `Cc1nc(N)sc1C(=O)Nc1ccc(F)cc1` . Reported inhibition of growth at 10 µM?
**Result** 2.56%

**Query** // query inhibition of growth at 10 µM value for entry `Cc1nc(NC(=O)NC2CCCCC2)sc1C(=O)NN`
**Result** < 10%

**Query** Please give the measured inhibition of growth at 10 µM for this compound: `CCOC(=O)c1sc(NC(=O)c2cc(OC)c(OC)c(OC)c2)nc1C`
**Result** < 10%

**Query** Given the compound `CCOC(=O)c1sc(NC(=O)NC2CCCCC2)nc1C` , what is its reported inhibition of growth at 10 µM?
**Result** < 10%

**Query** Which inhibition of growth at 10 µM is listed for `Cc1nc(NC(=S)Nc2ccc(F)cc2)sc1C(=O)NN` ?
**Result** 15.1%

**Query** For the compound shown here, `CCOC(=O)c1sc(NC(=O)Nc2ccccc2)nc1C` , give the reported inhibition of growth at 10 µM.
**Result** < 10%

**Query** Which inhibition of growth at 10 µM is reported for this compound? `CCOC(=O)c1sc(NS(=O)(=O)c2ccccc2)nc1C`
**Result** < 10%

**Query** Please report the recorded inhibition of growth at 10 µM for `Cc1nc(N)sc1C(=O)NCCO` .
**Result** < 10%

**Query** What value of inhibition of growth at 10 µM has been recorded for this entry: `Cc1nc(NC(=O)Nc2ccccc2)sc1C(=O)NN`
**Result** 22%

---

Record form. Attribute: zone of inhibition at 1000 µg/mL. Fill in for each entry.
- Test system: Candida albicans
- test: Antifungal activity against Candida albicans ATCC 10231 assessed as growth inhibition at 1 mg/mL after 48 hrs by agar-cup diffusion method
- Type: functional
- conditions: ATCC 10231, 48 h, read-out: DIZ

**Query** Item `CCOC(=O)c1sc(NC(=O)NC2CCCCC2)nc1C` has what recorded zone of inhibition at 1000 µg/mL?
**Result** > 13 mm

**Query** Given `Cc1nc(NC(=O)Nc2ccccc2)sc1C(=O)NN` , state its recorded zone of inhibition at 1000 µg/mL.
**Result** > 13 mm

**Query** What value of zone of inhibition at 1000 µg/mL has been recorded for this entry: `CCOC(=O)c1sc(NC(=O)C(F)(F)F)nc1C`
**Result** > 13 mm

**Query** Item under review: `CCOC(=O)c1sc(NC(=O)CN2CCOCC2)nc1C` . Reported zone of inhibition at 1000 µg/mL?
**Result** > 13 mm

**Query** So what's the measured zone of inhibition at 1000 µg/mL for this one? `CCOC(=O)c1sc(/N=C/c2ccco2)nc1C`
**Result** > 13 mm

**Query** What does the record list as zone of inhibition at 1000 µg/mL for `CCOC(=O)c1sc(NC(=O)Nc2ccccc2)nc1C` ?
**Result** > 13 mm

**Query** zone of inhibition at 1000 µg/mL for `Cc1nc(NC(=O)NC2CCCCC2)sc1C(=O)NN` ?
**Result** > 13 mm
